Each recorded value in this set is attributed to patent US20230295324A1.

Biological target: T1, cynomolgus monkey OX40 protein (Novoprotein, #CB17) (cynomolgus monkey)
T1 construct: Bought recombinant protein; also called cyno OX40
Assay: ELISA, coated cyno OX40 protein
Here the recorded Maximum OD is given for each entry.
measured-metric: Maximum OD (OD)

binder: PR002066 (antibody, human IgG1, V domains shown, no light chain; also called anti-OX40 HCAb antibody) VH: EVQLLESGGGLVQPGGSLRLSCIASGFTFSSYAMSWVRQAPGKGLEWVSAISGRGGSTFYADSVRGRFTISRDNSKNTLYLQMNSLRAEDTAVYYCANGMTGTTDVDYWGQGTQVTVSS
value: 2.44
//
binder: PR002063 (antibody, human IgG1, V domains shown, no light chain; also called anti-OX40 HCAb antibody) VH: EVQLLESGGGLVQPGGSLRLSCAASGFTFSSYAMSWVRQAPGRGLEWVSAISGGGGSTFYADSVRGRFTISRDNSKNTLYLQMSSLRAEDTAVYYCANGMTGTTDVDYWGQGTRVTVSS
value: 2.32
//
binder: PR002064 (antibody, human IgG1, V domains shown, no light chain; also called anti-OX40 HCAb antibody) VH: EVQLVETGGGLVQPGGSLRLSCAASGFTFSSYAMSWVRQAPGKGQEWVSAISGSGGSTFYADSVRGRFTISRDNSKNTLYLQMSSLRAEDTAVYYCANGMTGTTDVDYWGQGTLVTVSS
value: 2.08
//
binder: PR002059 (antibody, human IgG1, V domains shown, no light chain; also called anti-OX40 HCAb antibody) VH: EVQLLESGGGLVQPGGSLRLSCVVSGLTFSSYAMSWVRQAPGKGREWVSAISGRGGSTFYADSVRGRFTISRDNSKNTLYLQMNSLRAEDTAVYYCANGMTGSTDVDYWGQGTLVTVSS
value: 1.9
